- assay_comment: Fraction unbound in dog plasma
- Format: ADME, cell-free, Canis lupus familiaris
fraction unbound values for the molecules below.
The answer should be a number; do not append a unit.

molecule: C[C@@]1(c2cc(F)cc(F)c2)CNC2(CCCC2)C(=O)N1CC(=O)Nc1ccc2c(c1)C[C@@]1(C2)C(=O)Nc2ncccc21
fraction unbound: 0.079
//
molecule: O=C(CN1C(=O)C2(CCCC2)NC[C@H]1c1cc(F)cc(F)c1)Nc1ccc2c(c1)C[C@@]1(C2)C(=O)Nc2ncccc21 [MK3207]
fraction unbound: 0.061

Now for the molecule whose fraction unbound we want.
GET /value?item= C[C@@]1(c2cc(F)cc(F)c2)CNC2(CCCC2)C(=O)N1CC(=O)Nc1cnc2c(c1)C[C@@]1(C2)C(=O)Nc2ncccc21 &field=fraction unbound returns 0.17
